All values here come from PubChem BioAssay AID2289.

protocol details: qHTS Assay for Modulators of miRNAs and/or Inhibitors of miR-21; note: potency is the fitted concentration of half-maximal effect; nearly all actives have a fitted effect of over 55% in size
measurement context: HeLa miR-21-FLuc reporter, luciferase luminescence, 48 h; actives lower the signal
Hit rate of the full screen: of about 340,000 compounds, about 3,300 (0.97%) were called active. Not shown: some 9% with an inconclusive outcome. Some of the results follow.
measurement label: Potency

Hi there! I need Potency for each item below, if you can.
1. O=C(COc1ccc(F)cc1)N1CCC(c2ccccc2)C1 (stereo unspecified)
2. COc1ccccc1/C=C/C(=O)N1CCC(c2ccccc2)C1 (stereo unspecified)
3. CC(=O)c1c(C)nc(Nc2nc3ccccc3s2)nc1C
4. CN(C)/C=N/c1nc(-c2ccc3ccccc3c2)cs1

1: 13.1 µM (active); 2: 2.93 µM (active); 3: 0.736 µM (active); 4: 1.31 µM (active)

Hi there! I need Potency for each item below, if you can.
1. O=C(c1ccc(F)cc1)N1CCC(n2nnc3ccccc32)CC1
2. COc1ccc(-c2csc(N)n2)cc1F

1. 5.85 µM (active)
2. 9.27 µM (active)
